Target: UniProt Q8ILY1
Sequence (Q8ILY1 entry or part of it): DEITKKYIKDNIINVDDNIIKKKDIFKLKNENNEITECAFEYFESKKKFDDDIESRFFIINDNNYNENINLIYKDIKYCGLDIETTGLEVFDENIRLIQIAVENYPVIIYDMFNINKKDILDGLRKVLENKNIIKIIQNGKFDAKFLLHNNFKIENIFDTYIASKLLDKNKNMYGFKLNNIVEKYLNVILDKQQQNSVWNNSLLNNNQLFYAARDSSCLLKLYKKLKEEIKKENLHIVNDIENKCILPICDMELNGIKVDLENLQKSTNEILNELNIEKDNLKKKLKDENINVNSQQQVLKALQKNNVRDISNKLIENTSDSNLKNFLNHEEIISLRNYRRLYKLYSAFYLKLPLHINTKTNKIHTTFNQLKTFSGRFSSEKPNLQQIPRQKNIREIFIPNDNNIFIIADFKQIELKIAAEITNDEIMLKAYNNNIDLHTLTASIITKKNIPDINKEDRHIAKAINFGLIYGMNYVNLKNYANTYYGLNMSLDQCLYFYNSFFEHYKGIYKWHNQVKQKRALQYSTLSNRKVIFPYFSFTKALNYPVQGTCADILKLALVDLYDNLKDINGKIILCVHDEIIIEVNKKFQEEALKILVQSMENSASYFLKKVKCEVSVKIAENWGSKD
Experiment: Fluorescence-based high-throughput DNA polymerase assay (molecular beacon), primary screen and dose-response;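 also: compound concentration given in µM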
Assay type: biochemical
Conditions: DRC-2, 40', concentration 5
# reported % inhibition Apol 40'; entries follow
Record the value in %, omitting the unit from your answer.

Reference set, count: 2
# COMPOUND, TEST VALUE
data = [
    ("COc1ccccc1CCC(=O)N1CCc2c(nc3cc(-c4ccccc4)[nH]n3c2=O)C1 [Molecule 7]", 30),
    ("CSCCC(C)(O)CNC(=O)C1CC1 (stereo not drawn) [KU0200150]", 11),
]

Please look at the following compound next.
*Q* What does the data say about its % inhibition Apol 40'? Entry: CSC(C)C(=O)C=CN(C)C (stereo not drawn) [Molecule 71, CSC(C(=O)C=CN(C)C)C]
*A* 11
